Tested on: TGFβ signal
Experiment: TGFβ signal inhibitory activity, (SBE)4-Luc reporter in A549 cells (Test Examples 1A and 1B)
Assay type: cell-based, human
Conditions: Homo sapiens, A549; test compound 3 µM; Reference Examples, Table 1B; read-out: TGFβ inhibition rate, %
This listing pairs compounds with measured inhibition at 3 µM.
Kindly provide the numeric value in % only, without the unit symbol.

[
  {
    "Compound": "COc1cc2nccc(Oc3ccc(C)nc3C(C)=O)c2cc1OC [Compound r117]",
    "Endpoint Unit": "%",
    "inhibition at 3 µM": 84
  },
  {
    "Compound": "COc1ccc(Oc2ccnc3cc(OC)c(OC)cc23)c(/C=C/c2ccccc2)c1 [Compound r7]",
    "Endpoint Unit": "%",
    "inhibition at 3 µM": 13
  },
  {
    "Compound": "COc1cc2nccc(Oc3cc(C)c(C)cc3C(C)=O)c2cc1OC [Compound r38]",
    "Endpoint Unit": "%",
    "inhibition at 3 µM": 98
  },
  {
    "Compound": "COc1cc2c(Oc3ccc(C)cc3C(=O)c3ccccc3)ccnc2cc1OCCN1CCC(N2CCCC2)CC1 [Compound r127]",
    "Endpoint Unit": "%",
    "inhibition at 3 µM": 99
  },
  {
    "Compound": "COc1cc2nccc(Oc3c(C(C)=O)ccc4ccccc34)c2cc1OC [Compound r41]",
    "Endpoint Unit": "%",
    "inhibition at 3 µM": 57
  }
]

Query: Please tell me the measured inhibition at 3 µM for CCOC(=O)c1cc(I)ccc1Oc1ccnc2cc(OC)c(OC)cc12 [Compound r86] ; system: TGFβ signal.
Reply: 68

Query: Please tell me the measured inhibition at 3 µM for COc1cc2nccc(Oc3ccc(C)cc3[N+](=O)[O-])c2cc1OC [r13] ; system: TGFβ signal.
Reply: 28

Query: Please tell me the measured inhibition at 3 µM for COc1cc2c(Oc3ccc(C)cc3C(=O)c3ccccc3)ccnc2cc1OCCCCCl [Compound r141] ; system: TGFβ signal.
Reply: 55

Query: Please tell me the measured inhibition at 3 µM for COc1cc2nccc(Oc3ccc(F)cc3C(C)=O)c2cc1OC [r33] ; system: TGFβ signal.
Reply: 27

---

This listing pairs compounds with measured inhibition at 10 µM.
System: TGFβ signal
Test: TGFβ signal inhibitory activity, (SBE)4-Luc reporter in A549 cells (Test Examples 1A and 1B)
Type: cell-based, human
Conditions: Homo sapiens, A549; test compound 10 µM; Reference Examples, Table 1B; read-out: TGFβ inhibition rate, %
Kindly provide the numeric value in % only, without the unit symbol.

[
  {
    "Compound": "COc1cc2nccc(Oc3ccc4ncccc4c3)c2cc1OC",
    "Test Readout": "inhibition at 10 µM",
    "Number": 91
  },
  {
    "Compound": "COc1cc2c(Oc3ccc(C)cc3C(=O)c3ccccc3)ccnc2cc1OCC(O)Cn1ccnc1 (stereo not drawn)",
    "Test Readout": "inhibition at 10 µM",
    "Number": 100
  },
  {
    "Compound": "COc1cc2nccc(Oc3ccc(C)cc3C(=O)C3CCCC3)c2cc1OC",
    "Test Readout": "inhibition at 10 µM",
    "Number": 100
  },
  {
    "Compound": "CCC(=O)c1ccc(OC)cc1Oc1ccnc2cc(OC)c(OC)cc12",
    "Test Readout": "inhibition at 10 µM",
    "Number": 100
  },
  {
    "Compound": "COc1cc2nccc(Oc3ccccc3C(=O)OCc3ccccc3)c2cc1OC",
    "Test Readout": "inhibition at 10 µM",
    "Number": 84
  },
  {
    "Compound": "CCN(CC)CCCOc1cc2nccc(Oc3ccc(C)cc3C(=O)c3ccccc3)c2cc1OC",
    "Test Readout": "inhibition at 10 µM",
    "Number": 100
  },
  {
    "Compound": "COc1cc2c(Oc3ccc(C)cc3C(=O)c3ccccc3)ccnc2cc1OCCCCN1CCNCC1",
    "Test Readout": "inhibition at 10 µM",
    "Number": 100
  },
  {
    "Compound": "CCC(=O)c1cc(C)ccc1Oc1ccnc2cc(OC)c(OC)cc12",
    "Test Readout": "inhibition at 10 µM",
    "Number": 100
  },
  {
    "Compound": "COc1cc2nccc(Oc3cc4ccccc4cc3C(=O)Nc3cccc4ccccc34)c2cc1OC",
    "Test Readout": "inhibition at 10 µM",
    "Number": 96
  },
  {
    "Compound": "COc1cc2nccc(Oc3ccc(F)cc3C(C)=O)c2cc1OC",
    "Test Readout": "inhibition at 10 µM",
    "Number": 94
  }
]

Query: Please tell me the measured inhibition at 10 µM for COc1cc2nccc(Oc3cc(C)c(Cl)cc3C(C)=O)c2cc1OC ; system: TGFβ signal.
Reply: 100

Query: Please tell me the measured inhibition at 10 µM for COc1ccc(Oc2ccnc3cc(OC)c(OC)cc23)c(C(=O)c2ccccc2)c1 ; system: TGFβ signal.
Reply: 84

Query: Please tell me the measured inhibition at 10 µM for COc1cc2nccc(Oc3ccc(C)cc3[N+](=O)[O-])c2cc1OC ; system: TGFβ signal.
Reply: 78

Query: Please tell me the measured inhibition at 10 µM for COc1cc2nccc(Oc3ccc(C)nc3C(C)=O)c2cc1OC ; system: TGFβ signal.
Reply: 98

---

Tested on: TGFβ signal
Experiment: TGFβ signal inhibitory activity, (SBE)4-Luc reporter in A549 cells (Test Examples 1A and 1B)
Assay type: cell-based, human
Details: Homo sapiens, A549; 3 µM; compounds of Reference Examples (Test Example 1B); read-out: TGFβ inhibition rate, %
Kindly return Met if reported inhibition at 3 µM is no lower than 70%; return Not met if it is lower.

[
  {
    "Compound": "COc1cc2nccc(Oc3cc4ccncc4cc3Br)c2cc1OC",
    "Classification": "Not met"
  },
  {
    "Compound": "Cc1ccc(-c2nc(C)c(C)cc2Oc2ccnc3cc(Cl)ccc23)nc1",
    "Classification": "Met"
  },
  {
    "Compound": "COc1cc2c(Oc3cc4ccccc4nc3C(C)=O)ccnc2cc1O",
    "Classification": "Not met"
  },
  {
    "Compound": "COc1cc2c(Oc3cc(C)c(C)nc3-c3cccc(C)n3)ccnc2cc1OCCCl",
    "Classification": "Met"
  },
  {
    "Compound": "COc1cc2c(Oc3cc(C)c(C)cc3C(C)=O)ccnc2cc1OCCCCl",
    "Classification": "Met"
  }
]

Query: Hello, I need to know if COc1cc2c(Oc3cc4ccccc4nc3C(C)=O)ccnc2cc1OCCN1CCCC(O)C1 (stereo not drawn) has measured inhibition at 3 µM not below 70%. Thanks!
Reply: Met

Query: Hello, I need to know if COc1cc2nccc(Oc3cc4ccccc4nc3Br)c2cc1OC has measured inhibition at 3 µM not below 70%. Thanks!
Reply: Met

Query: Hello, I need to know if COc1cc2c(Oc3cc(C)c(C)nc3-c3cccnc3)ccnc2cc1OCCCCO has measured inhibition at 3 µM not below 70%. Thanks!
Reply: Met

Query: Hello, I need to know if COC(=O)CCCCCCC(=O)c1cc(C)ccc1Oc1ccnc2cc(OC)c(OC)cc12 has measured inhibition at 3 µM not below 70%. Thanks!
Reply: Not met

Query: Hello, I need to know if COc1cc2nccc(Oc3ccc(C)nc3-c3cccc(N)c3)c2cc1OC has measured inhibition at 3 µM not below 70%. Thanks!
Reply: Met

---

This listing pairs compounds with measured inhibition at 3 µM.
Test system: TGFβ signal
Assay: TGFβ signal inhibitory activity, (SBE)4-Luc reporter in A549 cells (Test Examples 1A and 1B)
Assay type: cell-based, human
Settings: Homo sapiens, A549; test compound 3 µM; TGFβ-1 2 ng/ml, 4 hr; Table 1A; read-out: TGFβ inhibition rate, %
Kindly provide the numeric value in % only, without the unit symbol.

Query: State its inhibition at 3 µM: Cc1ccc(Oc2ccnc3ccc(OCCCN(C)CCO)cc23)c(-c2ncccn2)n1
Reply: 54

Query: State its inhibition at 3 µM: Cc1cc(Oc2ccnc3cc(-c4ncccn4)ccc23)c(-c2ccccn2)nc1C
Reply: 98

Query: State its inhibition at 3 µM: Cc1cc(Oc2ncnc3scc(C)c23)c(-c2ccccn2)nc1C
Reply: 94

Query: State its inhibition at 3 µM: Cc1cc(Oc2ncnc3ccc(Cl)cc23)c(-c2ccccn2)nc1C
Reply: 90

Query: State its inhibition at 3 µM: c1ccc(-c2nc3ncccc3cc2Oc2ccnc3ccncc23)cc1
Reply: 53

Query: State its inhibition at 3 µM: COc1cc2nccc(Oc3cc(C)c(C)nc3-c3ncccn3)c2cc1F
Reply: 98

Query: State its inhibition at 3 µM: Cc1cc(Oc2ncnc3sccc23)c(-c2ccccn2)nc1C
Reply: 64

Query: State its inhibition at 3 µM: Cc1ccc(-c2nc(C)c(C)cc2Oc2ncnc3ccccc23)nc1
Reply: 45

Query: State its inhibition at 3 µM: COc1cc2nccc(Oc3cc(C)c(C)nc3-c3ccccn3)c2cc1Br
Reply: 99

Query: State its inhibition at 3 µM: COc1cc2nccc(Oc3cc4cccnc4nc3-c3csc4ccccc34)c2cc1OC
Reply: 97

Query: State its inhibition at 3 µM: Clc1ccc2ncnc(Oc3cc4cccnc4nc3-c3ccccc3)c2c1
Reply: 43

Query: State its inhibition at 3 µM: Cc1cc2nccc(Oc3cc(C)c(C)nc3-c3ccccn3)c2cc1C
Reply: 98

Query: State its inhibition at 3 µM: Cc1cc(Oc2ccnc3ccc(Cl)cc23)c(-c2ccccn2)nc1C
Reply: 100

Query: State its inhibition at 3 µM: COc1cc2nccc(Oc3cc4cccnc4nc3-c3cccnc3)c2cc1OC
Reply: 90

Query: State its inhibition at 3 µM: COc1cc2nccc(Oc3cc(C)c(C)nc3-c3ccccn3)c2cc1OCc1ccccc1
Reply: 98
